Test description: chemical genetic growth profiling, strain panel (AID 1159580);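 also: tested at 20 µM; growth read once vehicle control cultures reached saturation at 30 °C; 1 = growth at the plate median or of vehicle wells; lower values mean less growth of the strain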
Study conditions: S. cerevisiae deletion strains, growth OD, locus YDR137W, strain rgp1, hits give low values
In all, about 5,500 compounds went through this assay and about 2,000 (36%) were called active. Not shown: some 18% with an inconclusive outcome. The list shows a part of the results.
Value type: normalized growth

>>> endpoint_result("CCOC([O-])=Nc1c[n+](N2CCOCC2)no1")
1.01
>>> endpoint_result("CC(=O)Oc1cc2c(c(C)c1OC(C)=O)CC1OC13C2(C)CCC1(C)C2CC(C)(C(=O)O)CCC2(C)CCC13C (configuration not stated)")
1.02
>>> endpoint_result("CN1CCN(CC(=O)N2c3ccccc3C(=O)Nc3cccnc32)CC1")
1.02
>>> endpoint_result("CNCC[C@@H](Oc1ccccc1)c1ccccc1")
1.02
>>> endpoint_result("Cc1c(NC(=O)c2cccnc2)c(=O)n(-c2ccccc2)n1C")
0.992
>>> endpoint_result("COc1cnc(NS(=O)(=O)c2ccc(N)cc2)nc1")
0.996
>>> endpoint_result("Cc1ccc(N(CC2=NCCN2)c2cccc(O)c2)cc1")
1.02
>>> endpoint_result("CC(NCCC(c1ccccc1)c1ccccc1)c1ccccc1 (configuration not stated)")
0.981
>>> endpoint_result("COc1cc(NS(=O)(=O)c2ccc(N)cc2)ncn1")
0.991
>>> endpoint_result("CO[C@H]1C[C@H](O[C@H]2[C@H](C)[C@@H](OC3O[C@H](C)C[C@H](N(C)C)[C@H]3OC(C)=O)[C@@H](C)C[C@]3(CO3)C(=O)[C@H](C)[C@@H](OC(C)=O)[C@@H](C)[C@@H](C)OC(=O)[C@@H]2C)O[C@@H](C)[C@@H]1OC(C)=O (some centres not stated)")
1
>>> endpoint_result("CNC(Cc1c[nH]c2ccccc12)C(=O)O (configuration not stated)")
1.01
>>> endpoint_result("NCCNCCNCCN")
1

###

Measured normalized growth, listed per entry for reference.
Test description: chemical genetic growth profiling, strain panel (AID 1159580)
Study conditions: S. cerevisiae deletion strains, growth OD, locus YOR231W, strain MKK1, hits give low values
Hit rate of the full screen: of about 5,500 compounds, about 2,000 (36%) were called active. Another 18% or so got no clear call; they are omitted. This is one part of the list.
Value type: normalized growth

>>> endpoint_result("CC(=O)O[C@H]1CC[C@]2(C)C3CC[C@@]4(C)C(CC5O[C@@]6(CCC(C)CO6)[C@@H](C)C54)C3CC[C@@H]2C1 (some centres undefined)")
0.988
>>> endpoint_result("O=c1oc2c(O)c(O)cc3c(=O)oc4c(O)c(O)cc1c4c23")
0.972
>>> endpoint_result("CC1(C)C(=O)[C@@H]2C[C@@]3(O)C4=CC(=O)O[C@@H](c5ccoc5)[C@]4(C)CCC3[C@@](C)(C2=O)[C@H]1CC(=O)O (some centres undefined)")
0.998
>>> endpoint_result("CCC1(CC)C(=O)C=CNC1=O")
0.98

###

Test description: chemical genetic growth profiling, strain panel (AID 1159580);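 also: tested at 20 µM; growth read once vehicle control cultures reached saturation at 30 °C; 1 = growth at the plate median or of vehicle wells; lower values mean less growth of the strain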
Study conditions: S. cerevisiae deletion strains, growth OD, locus YLR342W, strain FKS1 (second series), hits give low values
Among all 5,500 compounds or so, about 2,000 (36%) were called active. Inconclusive results (about 18%) are left out. This is one part of the list. *1 amine or outer side, *2 acyl side, *3 side chain or, on linkers, in order; H or OH if unused. Where a SMILES comes first, the peptide text is derived from it. Bridges are numbered along the chain shown (N, C = ends). [ ]: non-standard residue; d: D form. The star is where a group is joined. ξ: configuration not given here. ΔAla(E,3-NHCONH2) = NC(=O)N/C=C(/N)C(=O)O; X2 = NC1=NCCC(C(N[*:1])C(=O)[*:2])N1; ξβ3hOrn = NCCCC(N)CC(=O)*; Dap = NC[CH](N)C(=O)O
Measured normalized growth, listed per entry for reference.
Value type: normalized growth

>>> endpoint_result("Cc1onc(-c2ccccc2)c1C(=O)NC1C(=O)N2[C@@H]1SC(C)(C)[C@@H]2C(=O)O (some centres not stated)")
1.01
>>> endpoint_result("O=c1[nH]cnc2c1ncn2C1O[C@H](CO)[C@@H](O)[C@H]1O (some centres not stated)")
0.996
>>> endpoint_result("COc1cc2c(cc1OC)[C@@]13CCN4CC5=CCOC6CC(=O)N2C1[C@H]6[C@H]5C[C@H]43 (some centres not stated)")
1.02
>>> endpoint_result("CCNc1nc(Cl)nc(NCC)n1")
0.995
>>> endpoint_result("CN(C)CCc1c[nH]c2ccc(CS(=O)(=O)N3CCCC3)cc12")
1.02
>>> endpoint_result("NCCCC(N)CC(=O)NCC1NC(=O)C(CO)NC(=O)C(N)CNC(=O)C(C2CCN=C(N)N2)NC(=O)/C(=C\\NC(N)=O)NC1=O (stereo not drawn) (H-[Dap]S[Dap](ξβ3hOrn)[ΔAla(E,3-NHCONH2)][X2]; lactam 1-C; configuration not given here)")
1.01
>>> endpoint_result("Cc1cc(C(C)(C)C)c(O)c(C)c1CC1=NCCN1")
0.984
>>> endpoint_result("NC1C[C@H]1c1ccccc1 (some centres not stated)")
0.987
>>> endpoint_result("O=C(CCBr)N1CCN(C(=O)CCBr)CC1")
1
>>> endpoint_result("C[C@]12CCC(=O)C=C1CCC1C2[C@@H](O)C[C@@]2(C)C1CC[C@]2(O)C(=O)COC(=O)CCC(=O)O (some centres not stated)")
0.998
>>> endpoint_result("Cc1onc(-c2ccccc2Cl)c1C(=O)N[C@@H]1C(=O)N2[C@@H]1SC(C)(C)[C@@H]2C(=O)O")
1.02
>>> endpoint_result("CC(=O)OCC(=O)[C@@]1(O)CCC2C3CCC4=CC(=O)CC[C@]4(C)C3[C@@H](O)C[C@@]21C (some centres not stated)")
0.998

###

Test description: chemical genetic growth profiling, strain panel (AID 1159580);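 also: tested at 20 µM; growth read once vehicle control cultures reached saturation at 30 °C; 1 = growth at the plate median or of vehicle wells; lower values mean less growth of the strain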
Study conditions: S. cerevisiae deletion strains, growth OD, locus YGL078C, strain dbp3, hits give low values
About 2,000 (36%) of roughly 5,500 compounds were called active. About 18% were inconclusive and are not listed. The list shows a part of the results.
Value type: normalized growth

>>> endpoint_result("OC(c1cc(C(F)(F)F)nc2c(C(F)(F)F)cccc12)C1CCCCN1 (centres undefined)")
0.985
>>> endpoint_result("COP(=O)(OC)OC(Br)C(Cl)(Cl)Br (centres undefined)")
1.01
>>> endpoint_result("CC(=O)NO")
0.997
>>> endpoint_result("CN(C)CCc1c[nH]c2ccc(CS(=O)(=O)N3CCCC3)cc12")
0.985

###

Test description: chemical genetic growth profiling, strain panel (AID 1159580);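 also: tested at 20 µM; growth read once vehicle control cultures reached saturation at 30 °C; 1 = growth at the plate median or of vehicle wells; lower values mean less growth of the strain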
Study conditions: S. cerevisiae deletion strains, growth OD, locus YKL085W, strain MDH1 (second series)
The campaign covered roughly 5,500 compounds. About 2,000 (36%) were called active. Not shown: some 18% with an inconclusive outcome. No stated cut-off is given here; in the data, active means normalized growth mostly below about 0.91 (no sharp cut-off); inconclusive means no clear call, values can overlap the other calls; inactive means mostly above about 0.92. This is one part of the list.
Possible outcomes: active, inactive

>>> class_assignment("COc1cc(NS(=O)(=O)c2ccc(N)cc2)ncn1")
"inactive"
>>> class_assignment("O=c1[nH]cnc2c1ncn2C1O[C@H](CO)[C@@H](O)[C@H]1O (stereo not given in full)")
"inactive"
>>> class_assignment("COc1cc(/C=C/C=O)cc(OC)c1OC")
"inactive"
>>> class_assignment("CCC1(CC)C(=O)C=CNC1=O")
"inactive"
>>> class_assignment("c1ccc([C@H]2CN3CCSC3=N2)cc1")
"inactive"
>>> class_assignment("NCCc1c[nH]c2ccccc12")
"inactive"
>>> class_assignment("COc1cc2c(cc1O)CCNC2C (stereo not given)")
"inactive"
>>> class_assignment("CC1(C)C(=O)[C@@H]2O[C@@H]2[C@@]2(C)C1CC(=O)[C@]1(C)C2CC[C@@]2(C)[C@H](c3ccoc3)OC(=O)[C@H]3O[C@]321 (stereo not given in full)")
"inactive"
>>> class_assignment("CCCc1nc2c(C)cc(-c3nc4ccccc4n3C)cc2n1Cc1ccc(-c2ccccc2C(=O)O)cc1")
"active"
>>> class_assignment("CC[C@H]1CN2CCc3cc(OC)c(OC)cc3C2C[C@@H]1CC1NCCc2cc(OC)c(OC)cc21 (stereo not given in full)")
"inactive"
>>> class_assignment("COc1cc(O)cc(OC)c1OC")
"inactive"
>>> class_assignment("O=C(O)[C@H](O)[C@@](O)(Cc1ccc(O)cc1)C(=O)O")
"inactive"
>>> class_assignment("NCC1OC(OC2C(CO)OC(OC3C(O)C(N)CC(N)C3OC3OC(CO)C(O)CC3N)C2O)C(N)C(O)C1OC1OC(CO)C(O)C(O)C1O (stereo not given)")
"inactive"
>>> class_assignment("CC1(C)C=Cc2cc3ccc(=O)oc3cc2O1")
"inactive"
>>> class_assignment("COc1cnc(NS(=O)(=O)c2ccc(N)cc2)nc1")
"inactive"

meta.source: PubChem BioAssay AID1159580
